B1: SASS6 (parent)
chain: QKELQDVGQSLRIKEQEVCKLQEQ

Variants of: B1
assay procedure: protein stability index of a GFP-peptide fusion (GPS, HEK-293T) (PSI 1-6); higher = more stable;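 further: lentivirally expressed fusions sorted by FACS into six bins by GFP to DsRed ratio, PSI derived from sequencing read proportions per bin multiplied by bin number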
test settings: c terminus: a fixed tail appended
parameter: protein stability index
Please give the numeric answer without any surrounding text.

Prompt: Quick one: protein stability index of QKELQDVIQSLRIKEQEVCKLQEQ [G8I] ?
Response: 4

Prompt: QKELQDVGQSLRIKEQEVCKLQDQ [E23D] ?
Response: 5.27

Prompt: QKELQDVGQSLRIKEYEVCKLQEQ [Q16Y] ?
Response: 4.68

Prompt: QKELQDVGQSLRIKKQEVCKLQEQ [E15K] ?
Response: 3.7

Prompt: QKELQDVGQSLRIKEIEVCKLQEQ [Q16I] ?
Response: 4.84

Prompt: QKELQDVGQSLREKEQEVCKLQEQ [I13E] ?
Response: 5.34

Prompt: QKELQDVVQSLRIKEQEVCKLQEQ [G8V] ?
Response: 4.69

Prompt: QKELQDVGQSLRIKEQEVCKLQES [Q24S] ?
Response: 4.43

Prompt: QKELQDVGQSLRIKEQEVCYLQEQ [K20Y] ?
Response: 4.66

Prompt: QKELQDTGQSLRIKEQEVCKLQEQ [V7T] ?
Response: 5.68

Prompt: QKELQDVKQSLRIKEQEVCKLQEQ [G8K] ?
Response: 5.2
